- Test system: PfAP2-EXP AP2 domain (GST-tagged)
- Experiment: gcPBM binding intensity (ln(normalized median fluorescence intensity)); higher = stronger DNA binding
The full ranking holds about 25,000 sequences; the median of “ln(normalized median fluorescence intensity)” is about 8.6, and the highest 2% start at about 10. Only a selection was taken, and the highest values are over-represented in it overall.
Catalogue of gcPBM binding intensity (ln) readings, one per entry.

As a guide, the following entries are already answered.
| Construct sequence | gcPBM binding intensity (ln) |
| --- | --- |
| ATTATGTTAATAATATGTACATATATCTACATATAT [XGTACX_site7978] | 8.37 |
| ATATATATATATATATGTACATAATGCATATAATAT [XGTACX_site6142] | 10.2 |
| AATATATATATATATACACACACACCGATATATATA [CACACA_site8158] | 8.79 |
| TATACATACATACATACACACACACCGATATATACA [CACACA_site8184] | 8.78 |
| CGCATGCAATGTTAATGTACATATATATATATATGT [XGTACX_site3316] | 9.39 |
| TATGTACAAATATGTACACACACACCGATATATATA [CACACA_site4487] | 8.76 |
| ATATATATATATATATGTACATATGTTAATCTGCAT [XGTACX_site1068] | 10.2 |
| ACACAAGCACACAAATGTACATATATATATATATAT [XGTACX_site5146] | 10.2 |

Now look at this one.
## Task // lookup gcPBM binding intensity (ln) for AAATATATAATACATATGTAATATGCATATATATAT [GTGCAC_negctrl_site450]
## Result 9.72

----------
- Test system: PfAP2-EXP AP2 domain (GST-tagged)
- Experiment: gcPBM binding intensity (ln(normalized median fluorescence intensity)); higher = stronger DNA binding
The full ranking holds about 25,000 sequences; the median of “ln(normalized median fluorescence intensity)” is about 8.6, and the highest 2% start at about 10. The list comes from a sample in which the highest values are over-represented; it also holds close analogues and randomly drawn sequences.
Property measured: gcPBM binding intensity (ln)
Give the figure by itself; no unit, no explanation.

## Task # gcPBM binding intensity (ln) lookup, item TTTCTTCATTTTTTCACACATAAGAAAATATAATCA [CACACA_site4275]
## Result 8.46

## Task What would you report for TATATCTTAATATACACACACACATATATATATATA [CACACA_site4968] ?
## Result 10

## Task Item: ATTAGCTACAAACAAAGGCTACCTATAGCAAGAGGG [GTGCAC_negctrl_site33]
## Result 8.84

## Task Try TGGTTTCAATAATTAATAAAATATATTATTGTGAAA [CACACA_negctrl_site442] next.
## Result 7.95

## Task Now the sequence AAGAATATAATCTTCACACATATATATATATATATA [CACACA_site5927]
## Result 10.2

----------
- System: PfAP2-EXP AP2 domain (GST-tagged)
- Experiment: gcPBM binding intensity (ln(normalized median fluorescence intensity)); higher = stronger DNA binding
Over roughly 25,000 sequences, “ln(normalized median fluorescence intensity)” has its median near 8.6; the highest 2% begin near 10. The list comes from a sample in which the highest values are over-represented; it also holds close analogues and randomly drawn sequences.
Catalogue of gcPBM binding intensity (ln) readings, one per entry.
Lab note: jot the number down without any unit.

Some solved cases for reference:
| Construct sequence | System under test | gcPBM binding intensity (ln) |
| --- | --- | --- |
| TTTATATCTTATTATAGGAAAATGAATATTTTCTCT [TGCATGCA_negctrl_site478] | PfAP2-EXP AP2 domain (GST-tagged) | 8.19 |
| CATATATACACATACACACACACACGGACACGCACA [CACACA_site6910] | PfAP2-EXP AP2 domain (GST-tagged) | 8.87 |
| TATATATGTTTTTATGTACACACTTTTAACCTAAGA [CACACA_site1149] | PfAP2-EXP AP2 domain (GST-tagged) | 8.71 |
| ATTGAAAATTGTTGCACACATAATAATTAAATATAT [CACACA_site1857] | PfAP2-EXP AP2 domain (GST-tagged) | 8.37 |
| ACCCTATATGTAACTACACACCGCATATTGTTTACT [CACACA_site3071] | PfAP2-EXP AP2 domain (GST-tagged) | 9.19 |
| TTTTTATATTCCCCCAGTACATATATAATAGTAGTA [XGTACX_site7927] | PfAP2-EXP AP2 domain (GST-tagged) | 10 |

## Task # lookup: gcPBM binding intensity (ln) of CACAGACACGGACACACACACACACCCACATATATA [CACACA_site4355]
## Result 8.73

## Task Can you check AAAATACCCGGACACACACACATATATATATATATT [CACACA_site6137] next?
## Result 8.83
